Taken from paper PMC8749431.

System: pseudotyped VSVs harboring SARS-CoV S (SARS-Spp)
Assay: microbe, parasite or virus in culture
Type: cell-based
Conditions: Severe acute respiratory syndrome coronavirus, MA104
endpoint: pEC50
Keep it numeric: pEC50 is minus log10 of the concentration in mol/L.

// below: answered compounds
{"columns": ["compound", "pEC50"],
 "data": [
  ["CN1CCN([C@@H](c2ccccc2)c2ccc(Cl)cc2)CC1 [(S)-CCZ, (S)-chlorcyclizine]", 5.16],
  ["CCN1CCN(C(c2ccc(Cl)cc2)c2ccc(Cl)cc2)CC1", 5.00]
]}

[in] Give the reported pEC50 for Cc1cc(-c2nc(CN3CCC(C(=O)NCCCN4C[C@H](C)C[C@H](C)C4)CC3)co2)ccc1F (system: pseudotyped VSVs harboring SARS-CoV S (SARS-Spp)).
[out] 5.19
